Molecular target: mouse Tas2r144 (Mus musculus)
Construct: expressed in transfected cells; host or cells: HEK293T-Gα16gust44
Experiment: Calcium imaging assay (FLIPR), HEK293T-Gα16gust44 cells transfected with mouse Tas2r144
Type: cell-based
Settings: Time 50.781 s
Documented RLU across a set of molecules

MOLECULE	RLU [RLU]
C[C@H](CCC(=O)NCCS(=O)(=O)O)[C@H]1CC[C@H]2[C@@H]3CC[C@@H]4C[C@H](O)CC[C@]4(C)[C@H]3CC[C@]12C [Taurolithocholic Acid, taurolithocholic acid]	358.126
C[C@H](CCC(=O)NCCS(=O)(=O)O)[C@H]1CC[C@H]2[C@@H]3[C@H](O)C[C@@H]4C[C@H](O)CC[C@]4(C)[C@H]3C[C@H](O)[C@]12C [Taurocholic Acid, taurocholic acid]	507.687
C[C@H](CCC(=O)NCC(=O)O)[C@H]1CC[C@H]2[C@@H]3[C@H](O)C[C@@H]4C[C@H](O)CC[C@]4(C)[C@H]3C[C@H](O)[C@]12C [Glycocholic Acid, glycocholic acid]	393.283
C[C@H](CCC(=O)O)[C@H]1CC[C@H]2[C@@H]3[C@H](O)C[C@@H]4C[C@H](O)CC[C@]4(C)[C@H]3C[C@H](O)[C@]12C [Cholic Acid, cholic acid]	641.518

* * *

Target: human TAS2R14 (Homo sapiens, UniProt Q9NYV8)
Construct: expressed in transfected cells; host or cells: HEK293T-Gα16gust44
Sequence (Q9NYV8 whole entry): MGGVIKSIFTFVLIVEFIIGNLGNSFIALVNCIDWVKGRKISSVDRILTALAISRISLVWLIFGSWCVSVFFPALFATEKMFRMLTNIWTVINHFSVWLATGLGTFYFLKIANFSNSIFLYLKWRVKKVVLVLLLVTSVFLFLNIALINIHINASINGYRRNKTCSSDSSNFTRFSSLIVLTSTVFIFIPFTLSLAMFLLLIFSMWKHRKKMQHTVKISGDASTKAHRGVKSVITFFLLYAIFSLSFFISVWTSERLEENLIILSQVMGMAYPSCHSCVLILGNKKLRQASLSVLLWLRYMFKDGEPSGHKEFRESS
Experiment: Calcium imaging assay (FLIPR), HEK293T-Gα16gust44 cells transfected with human TAS2R14
Type: cell-based
Details: TAS2R14 trace; Time (s) 30.797 (Chenodeoxycholic Acid 30.781)
Documented RLU across a set of compounds
ASSAY METRIC: RLU (RLU)

COMPOUND	ASSAY METRIC	UNIT SPEC	REPORTED
C[C@H](CCC(=O)NCCS(=O)(=O)O)[C@H]1CC[C@H]2[C@@H]3CC[C@@H]4C[C@H](O)CC[C@]4(C)[C@H]3CC[C@]12C [Taurolithocholic Acid, taurolithocholic acid]	RLU	RLU	-13.6241
C[C@H](CCC(=O)NCC(=O)O)[C@H]1CC[C@H]2[C@@H]3[C@H](O)C[C@@H]4C[C@H](O)CC[C@]4(C)[C@H]3C[C@H](O)[C@]12C [Glycocholic Acid, glycocholic acid]	RLU	RLU	25.2324
C[C@H](CCC(=O)NCCS(=O)(=O)O)[C@H]1CC[C@H]2[C@@H]3[C@H](O)C[C@@H]4C[C@H](O)CC[C@]4(C)[C@H]3C[C@H](O)[C@]12C [Taurocholic Acid, taurocholic acid]	RLU	RLU	-8.18
C[C@H](CCC(=O)O)[C@H]1CC[C@H]2[C@@H]3[C@H](O)C[C@@H]4C[C@H](O)CC[C@]4(C)[C@H]3CC[C@]12C [Chenodeoxycholic Acid, chenodeoxycholic acid]	RLU	RLU	234.892
C[C@H](CCC(=O)O)[C@H]1CC[C@H]2[C@@H]3[C@H](O)C[C@@H]4C[C@H](O)CC[C@]4(C)[C@H]3C[C@H](O)[C@]12C [Cholic Acid, cholic acid]	RLU	RLU	60.9467

* * *

Biological target: mouse Tas2r105 (Mus musculus)
Construct: expressed in transfected cells; host or cells: HEK293T-Gα16gust44
Sequence (Q9JKT4 1-300): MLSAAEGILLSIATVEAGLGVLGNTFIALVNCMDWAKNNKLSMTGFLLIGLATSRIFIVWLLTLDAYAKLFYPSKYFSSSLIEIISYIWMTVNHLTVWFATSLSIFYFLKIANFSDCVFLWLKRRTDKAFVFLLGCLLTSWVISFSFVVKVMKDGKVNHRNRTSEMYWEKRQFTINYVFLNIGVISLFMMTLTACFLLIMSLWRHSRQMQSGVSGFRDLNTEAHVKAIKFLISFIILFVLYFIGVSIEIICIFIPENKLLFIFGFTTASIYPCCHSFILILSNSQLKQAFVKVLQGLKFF
Assay: Calcium imaging assay (FLIPR), HEK293T-Gα16gust44 cells transfected with mouse Tas2r105
Type: cell-based
Conditions: Time 84.781 s

SMILES REPRESENTATION	RLU, RLU
C[C@H](CCC(=O)O)[C@H]1CC[C@H]2[C@@H]3CC[C@@H]4C[C@H](O)CC[C@]4(C)[C@H]3C[C@H](O)[C@]12C	68.7087
C[C@H](CCC(=O)O)[C@H]1CC[C@H]2[C@@H]3[C@H](O)C[C@@H]4C[C@H](O)CC[C@]4(C)[C@H]3C[C@H](O)[C@]12C	531.991
C[C@H](CCC(=O)O)[C@H]1CC[C@H]2[C@@H]3CC[C@@H]4C[C@H](O)CC[C@]4(C)[C@H]3CC[C@]12C	195.966
C[C@H](CCC(=O)NCC(=O)O)[C@H]1CC[C@H]2[C@@H]3[C@H](O)C[C@@H]4C[C@H](O)CC[C@]4(C)[C@H]3C[C@H](O)[C@]12C	535.792

* * *

Molecular target: human TAS2R1 (Homo sapiens)
Construct: expressed in transfected cells; host or cells: HEK293T-Gα16gust44
Sequence (Q9NYW7 1-299): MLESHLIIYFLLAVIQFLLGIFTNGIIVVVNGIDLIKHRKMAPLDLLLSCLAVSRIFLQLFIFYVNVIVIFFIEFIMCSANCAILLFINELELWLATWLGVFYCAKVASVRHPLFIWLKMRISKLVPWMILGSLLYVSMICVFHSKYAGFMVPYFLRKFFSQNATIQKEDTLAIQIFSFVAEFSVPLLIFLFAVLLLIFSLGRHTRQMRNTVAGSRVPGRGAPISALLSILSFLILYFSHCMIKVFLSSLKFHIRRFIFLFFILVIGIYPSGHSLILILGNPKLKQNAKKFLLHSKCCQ
Assay: Calcium imaging assay (FLIPR), HEK293T-Gα16gust44 cells transfected with human TAS2R1
Type: cell-based
Settings: Time 299.562 s
ASSAY METRIC: RLU

COMPOUND	REPORTED
C[C@H](CCC(=O)O)[C@H]1CC[C@H]2[C@@H]3[C@@H](O)C[C@@H]4C[C@H](O)CC[C@]4(C)[C@H]3CC[C@]12C [Ursodeoxycholic Acid, ursodeoxycholic acid]	-10.1171 RLU
C[C@H](CCC(=O)O)[C@H]1CC[C@H]2[C@@H]3CC[C@@H]4C[C@H](O)CC[C@]4(C)[C@H]3CC[C@]12C [Lithocholic Acid, lithocholic acid]	240.784 RLU
C[C@H](CCC(=O)O)[C@H]1CC[C@H]2[C@@H]3[C@H](O)C[C@@H]4C[C@H](O)CC[C@]4(C)[C@H]3C[C@H](O)[C@]12C [Cholic Acid, cholic acid]	-34.1549 RLU
C[C@H](CCC(=O)O)[C@H]1CC[C@H]2[C@@H]3[C@H](O)C[C@@H]4C[C@H](O)CC[C@]4(C)[C@H]3CC[C@]12C [Chenodeoxycholic Acid, chenodeoxycholic acid]	134.725 RLU

* * *

Target: mouse Tas2r144 (Mus musculus, UniProt Q7TQB8)
Construct: expressed in transfected cells; host or cells: HEK293T-Gα16gust44
Sequence (Q7TQB8 whole entry): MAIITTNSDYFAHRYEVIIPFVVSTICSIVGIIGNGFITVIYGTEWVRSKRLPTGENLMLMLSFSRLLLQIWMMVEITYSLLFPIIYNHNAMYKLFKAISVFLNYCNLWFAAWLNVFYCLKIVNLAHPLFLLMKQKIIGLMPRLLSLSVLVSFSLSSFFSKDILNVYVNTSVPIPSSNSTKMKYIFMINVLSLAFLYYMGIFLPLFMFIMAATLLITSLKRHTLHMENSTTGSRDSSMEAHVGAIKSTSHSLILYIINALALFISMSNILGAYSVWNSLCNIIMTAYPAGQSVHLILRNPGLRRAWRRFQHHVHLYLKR
Assay: Calcium imaging assay (FLIPR), HEK293T-Gα16gust44 cells transfected with mouse Tas2r144
Assay type: cell-based
Settings: Time 36.781 s
Experimental: This set of bile acids was chosen because of their commercial availability in high purities, their diversity within the class of bile acids and their previous detection and quantitation in human blood. Stock solutions were prepared in DMSO. […] Measured data were negative control corrected by subtracting the signal of the mock-transfected cells and exported to Microsoft Excel using the FLIPR software ScreenWorks 4.2. […]

MOLECULE	TARGET ENTITY	RLU / RLU
C[C@H](CCC(=O)NCCS(=O)(=O)O)[C@H]1CC[C@H]2[C@@H]3CC[C@@H]4C[C@H](O)CC[C@]4(C)[C@H]3CC[C@]12C [Taurolithocholic Acid, taurolithocholic acid]	mouse Tas2r144 (Mus musculus, UniProt Q7TQB8)	151.604
C[C@H](CCC(=O)NCCS(=O)(=O)O)[C@H]1CC[C@H]2[C@@H]3[C@H](O)C[C@@H]4C[C@H](O)CC[C@]4(C)[C@H]3C[C@H](O)[C@]12C [Taurocholic Acid, taurocholic acid]	mouse Tas2r144 (Mus musculus, UniProt Q7TQB8)	353.155
C[C@H](CCC(=O)NCC(=O)O)[C@H]1CC[C@H]2[C@@H]3[C@H](O)C[C@@H]4C[C@H](O)CC[C@]4(C)[C@H]3C[C@H](O)[C@]12C [Glycocholic Acid, glycocholic acid]	mouse Tas2r144 (Mus musculus, UniProt Q7TQB8)	276.718
C[C@H](CCC(=O)O)[C@H]1CC[C@H]2[C@@H]3[C@H](O)C[C@@H]4C[C@H](O)CC[C@]4(C)[C@H]3C[C@H](O)[C@]12C [Cholic Acid, cholic acid]	mouse Tas2r144 (Mus musculus, UniProt Q7TQB8)	524.9
